The origin of these recorded values is PubChem BioAssay (NCI).

- Test system: NCI-H23 lung
- assay_comment: NCI tumour cell line growth inhibition, 48 h
Documented GI50 across a set of compounds
assay_endpoint: GI50

COc1ccc(Cl)cc1Nc1nc(C(F)(F)F)ccc1C(=O)N/N=C/c1c(Cl)cccc1Cl; 38500 nM
CN(C)c1cccc2c(S(=O)(=O)N[C@H]3CC[C@H]4[C@@H]5CCc6cc(O)ccc6[C@H]5CC[C@]34C)cccc12; 2990 nM
COc1ccc2nc(N/N=C(\C)c3ccccn3)cc(C)c2c1; 440 nM
O=C(Oc1ccc(Cl)cc1Cl)c1ccccc1Nc1ccnc(C(F)(F)F)c1; 3510 nM
O=C(Nc1ccc(N2CCNCC2)cc1)c1[nH]ncc1Nc1ncnc2sc3c(c12)CCC3; 268 nM
O=C(CCCCCCSc1nc(-c2ccccc2)cc(-c2ccc(Cl)cc2)n1)NO; 1880 nM
CNC(P(=O)([O-])[O-])P(=O)([O-])[O-].N.N.[Pt+2]; > 100000 nM
ClCc1cccc(Cn2cnc3c(Cl)ncnc32)c1; 1920 nM
CCN(CC)CCOc1nc2ccc(OC)cc2c2c1-c1ccc(OC)cc1C2=O; 1250 nM
N#Cc1cn(C2OC(CO)C(O)C2O)c2ncnc(N)c12 (stereo not given); 25.6 nM
O=[N+]([O-])C1C(c2ccccc2)C12c1ccccc1-c1ccccc12 (stereo not given); 2060 nM
O=C1NCc2ccc3c(-c4cccc(Cl)c4)c[nH]c3c21; 484 nM
CCC[CH2][Sn-]([CH2]CCC)([CH2]CCC)[O]c1cc(Cl)c(Cl)cc1Cl; 230 nM
O=C(CSc1nc2ccccc2[nH]1)Nc1ccc(-c2nc3ccccc3s2)c(Cl)c1; 1880 nM
C=C1CC2(OC1=O)C(=O)N(CCCCCCCN1C(=O)C3(CC(=C)C(=O)O3)c3ccccc31)c1ccccc12 (stereo not given); 3710 nM

====

- Test system: PC-3 prostate
- assay_comment: NCI tumour cell line growth inhibition, 48 h; in the data active = GI50 below about 0.43 µM; inactive = the rest
Labels: active, inactive

COc1ccc(C(=O)/C(Br)=C/C(=O)O)cc1; inactive
COc1ccc(-c2nn3ncccc3c2-c2ccnc(Nc3ccc(Cl)c(C(F)(F)F)c3)n2)cc1; inactive
ClCc1cccc(Cn2cnc3c(Cl)ncnc32)c1; inactive
Cc1ccc(-[n+]2c3cc(N)c(C)cc3nc3cc(C)c(Nc4ccccc4)cc32)cc1; active

====

- System: EKVX NSCLC
- assay_comment: NCI tumour cell line growth inhibition, 48 h
assay_endpoint: TGI

Brc1ccc(N=NN2CCCCC2)cc1; > 100 µM
O=C(CSc1nc2ccccc2[nH]1)Nc1ccc(-c2nc3ccccc3s2)c(Cl)c1; > 100 µM
C=C1C(=O)O[C@H]2[C@H]1CC/C(COC(=O)c1cc3cc(F)ccc3[nH]1)=C\CC[C@@]1(C)O[C@@H]21; 3.71 µM
CCOC/N=C(/N)NC#N; > 100 µM
CC1=C(C(=O)Nc2ccccc2C)C(c2ccccc2)C(C(=O)Nc2ccccc2C)=C(C)N1; > 100 µM
C=CCC(C)C12CCNC(Cc3ccc(O)cc31)C2C (stereo unspecified); > 100 µM
N=C(N)SCCON1C(=O)c2ccccc2C1=O; > 100 µM
CCOC(=O)C(=O)Nc1nc2c(s1)C(=O)c1ccccc1C2=O; 29.6 µM
CCOC(=O)[C@@]1(C)C=C2O[C@@H]3OC4(CCCCC4)O[C@@H]3C2=C2C(O)=CC=C(O)[C@]21C(=O)OC; > 68 µM
Cc1ccc(C(=O)N(C2CCCCC2)C2CCCCC2)cc1N=NN(C)C; 32.3 µM
COc1ccc2c(c1)/C(=C\c1c(C)nc3sc(C)cn13)C(=O)N2C; 73.8 µM
